assay notes: Solid state stability on storage (purity of sample)
Assay type: physicochemical
conditions used: 4 Weeks, 37 deg. C.
outcome measure: remaining at 672 h (%)
Numbers only, in %.

I'd like to know its remaining at 672 h. The compound in question is C/C=C\C1=C(C(=O)O)N2C(=O)C(N3C(=O)[C@@H](c4ccc(O)cc4)NC3(C)C)[C@H]2SC1 (stereo partly shown)
100

These data points were gathered from patent US4727070A.
